Test: Pharmacokinetics in SD rats after oral administration of FA extract, NA, NHE or NA-NHE (UPLC-MS/MS of plasma, DAS 3.1)
Format: in vivo, Sprague-Dawley (SD) rats
Settings: Sprague-Dawley, rat, plasma; male SD rats, oral FA extract 10.8 g/kg of the original medicinal material; statistical moment parameters; n = 6; read-out: Vz/F
VALUE_KIND: Vd/F (L/kg)

Solved entries:
> print(dat)
                                   compound  unit.label  value.reported
1  COc1ccc2ccc(=O)oc2c1CC(O)C(C)(C)O (centres unmarked) [Meranzin hydrate, meranzin hydrate]        L/kg            9.36
2  O=C1C[C@@H](c2ccc(O)cc2)Oc2cc(O)cc(O)c21 [Naringenin, naringenin]        L/kg            2.06
3  COc1ccc(-c2cc(=O)c3c(OC)c(OC)c(OC)c(OC)c3o2)cc1OC [Nobiletin, nobiletin]        L/kg             151

P = COc1ccc([C@@H]2CC(=O)c3c(O)cc(O)cc3O2)cc1O [Hesperetin, hesperetin]
Q = COc1ccc2ccc(=O)oc2c1CC1OC1(C)C (centres unmarked) [Meranzin, meranzin]
Input pair: P , Q . Output: entry with lower Vd/F. The response must carry the label of the picked entry.
P
(P: 12.2 L/kg, Q: 477 L/kg)

Hello, the source for this data is paper PMC7319089, in case you need it.
